Test target: the molecule itself
Procedure text: steric trap, PS/PC
Measured metric: Kd (nM)
Report the figure in nM without appending any unit label.

Exercise: Using known records, supply Kd for Glycophorin A TM domain (SNGpATM) TMD (protein) GERVQLAHHFSEPEITLIIFGVMAGVIGTILLISYGIRRLIKKSPSDVKPLPSPDTDVPLSSVEIENPETSDQ
Key: 25
